# target system: GST-tagged human ROCK1 catalytic domain 1-477 (Homo sapiens, UniProt Q13464)
# Construct: human ROCK1 catalytic domain 1-477 from Carna Biosciences (cat #01-109); purchased Carna Biosciences 01-109; host or cells: baculovirus expression system
# Sequence (Q13464 1-477): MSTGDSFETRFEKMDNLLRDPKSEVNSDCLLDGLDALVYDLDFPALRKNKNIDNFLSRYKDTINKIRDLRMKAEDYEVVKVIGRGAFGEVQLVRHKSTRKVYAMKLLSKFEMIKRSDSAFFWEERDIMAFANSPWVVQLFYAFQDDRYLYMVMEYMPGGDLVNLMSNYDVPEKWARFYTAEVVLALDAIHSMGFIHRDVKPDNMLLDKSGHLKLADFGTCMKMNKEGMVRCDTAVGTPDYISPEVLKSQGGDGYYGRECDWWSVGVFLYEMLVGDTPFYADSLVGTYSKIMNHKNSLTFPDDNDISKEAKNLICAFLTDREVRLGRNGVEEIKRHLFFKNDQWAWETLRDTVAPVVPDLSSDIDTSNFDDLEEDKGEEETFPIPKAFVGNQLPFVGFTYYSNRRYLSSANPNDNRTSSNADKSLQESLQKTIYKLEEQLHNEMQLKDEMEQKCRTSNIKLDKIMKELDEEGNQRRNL
# assay: Isolated Enzyme Assay, ROCK1 (LANCE Ultra ULight-CREBtide FRET)
# Format: biochemical
# condition context: isolated enzyme assay; 30 μM highest concentration tested; read-out: Results from Isolated Enzyme Assay IC50 (μM) ROCK1
IC50 reference

Completed entries (count: 4):
// query Given the molecule O=C1CCCN1c1cc(-c2nsc(Nc3ccc4[nH]ncc4c3Cl)n2)ccn1 , write its reported IC50.
// result < 1 µM

// query Supply IC50 value. Item: Cc1cc(NC(=O)c2cncs2)cc(-c2nsc(Nc3ccc4[nH]ncc4c3Cl)n2)n1
// result < 1 µM

// query Specify IC50 for Cn1cc(-c2nsc(Nc3ccc4[nH]ncc4c3Cl)n2)cc(N2CCOC2=O)c1=O and stop.
// result > 30 µM

// query Note down IC50 recorded for COc1ccc(C(=O)Nc2cc(C)nc(-c3nsc(Nc4ccc5[nH]ncc5c4Cl)n3)c2)cc1
// result > 30 µM

---
// query Give recorded IC50. O=C(c1cccc(-c2nsc(Nc3ccc4[nH]ncc4c3Cl)n2)c1)N1CCOCC1
// result 1 to 15 µM

// query Identify measured IC50 corresponding to CC(C)c1cc(C(=O)Nc2cccc(-c3nsc(Nc4ccc5[nH]ncc5c4Cl)n3)c2)n(C)n1
// result < 1 µM

// query Report IC50 for COc1cccc(C(=O)Nc2cncc(-c3nsc(Nc4ccc5[nH]ncc5c4Cl)n3)c2)c1
// result > 30 µM

// query Given CS(=O)(=O)c1cccc(-c2nsc(Nc3ccc4[nH]ncc4c3Cl)n2)c1 , respond with its IC50.
// result > 30 µM

// query Provide only the value of recorded IC50 for O=C1OCCN1c1cccc(-c2nsc(Nc3ccc4[nH]ncc4c3Cl)n2)c1
// result < 1 µM
